target: rhSYK (Homo sapiens (Human), UniProt P43405); conditions: read-out: rhSYK activity
Below is a list of entries, each paired with its recorded IC50 value.

Please fill in: IC50 reported for `CC(C)(c1ncc(-c2cc(N)cc(Nc3nccc(C(F)(F)F)n3)c2)s1)S(N)(=O)=O` = < 100 nM

Reported IC50 of `COC(=O)[C@H](C)Cc1ncc(-c2cc(C)cc(Nc3nccc(C(F)(F)F)n3)c2)s1` : < 100 nM

For record FC(F)(F)c1ccnc(Nc2cc(Br)cc(-c3cncs3)c2)n1 [Intermediate 11] the listed IC50 is 100 to 1000 nM

====

biological target: rhSYK (Homo sapiens (Human), UniProt P43405); conditions: read-out: rhSYK activity
Below: a set of entries, each annotated with reported IC50.

molecule | IC50
Cc1cc(Nc2nccc(C(F)(F)F)n2)cc(-c2cnc(C3(C#N)CCC4(CC3)OCCO4)s2)c1 | < 100 nM

What the record says about O=C1C[C@@H]2C[C@@](O)(c3ncc(-c4cccc(Nc5nccc(C(F)(F)F)n5)c4)s3)C[C@@H]2C1 [Example 4B-7] : IC50 is 100 to 1000 nM

Short answer for Cc1cc(Nc2nccc(C(F)(F)F)n2)cc(-c2cnc(C(C)C)s2)c1 [Example 13] : IC50 was < 100 nM

Documented IC50 of CCOC(=O)N1CCC(O)(c2ncc(-c3cccc(Nc4nccc(C(F)(F)F)n4)c3)s2)CC1 [4D-4] : < 100 nM

Value of measured IC50 for the entry CC(C)(O)c1ncc(-c2cc(Br)cc(Nc3nccc(C(F)(F)F)n3)c2)s1 [Example 4A-4] : < 100 nM
